Tested on: CCRIS mutagenicity, Ames/micronucleus/aberration tests
Assay: CCRIS mutagenicity studies
Details: Test System: AMES SALMONELLA TYPHIMURIUM; Strain/Indicator: TA1537; Metabolic Activation: NONE; Method: STANDARD PLATE
Text: The CCRIS database contains chemical records with carcinogenicity, mutagenicity, tumor promotion, and tumor inhibition test results. It was developed by the National Cancer Institute (NCI). Data are derived from studies cited in primary journals, current awareness tools, NCI reports, and other sources. Test results have been reviewed by experts in carcinogenesis and mutagenesis. CCRIS provides historical information from the years 1985 - 2011. It is no longer updated. […]
Activity calls are given as the source filed them. How the calls were made is not given here.
Thanks in advance; please answer with one of these: 1.0 for active, 0.0 for inactive

Some entries whose results are on file:
compound | class
CC(C)Nc1nc(Cl)nc(NC(C)C)n1 | 0.0
CN(C(=O)CCCCl)c1snc2ccccc12 | 0.0
CN(CC(=O)NN)c1ccc2ccccc2c1 | 0.0
c1ccc2c(c1)OCCOCCOCCOCCO2 | 0.0
COc1ccc([C@@H]2CC(=O)c3c(O)cc(O[C@@H]4O[C@H](CO[C@@H]5O[C@@H](C)[C@H](O)[C@@H](O)[C@H]5O)[C@@H](O)[C@H](O)[C@H]4O)cc3O2)cc1O | 0.0
CC(C)(C)CBr | 0.0
Cc1ccc(-c2nc3n(c2[N+](=O)[O-])CCS3)cc1 | 0.0
[N-]=[N+]=Nc1ccc2c(Nc3ccc(C(=O)O)cc3)c3ccccc3nc2c1 | 1.0
O=C1N=NC(=O)C2C=CC=CC12 (configuration not stated) | 0.0
CCCCOc1ccc2nc3cc(Cl)ccc3c(NCCCN(CC)CCCl)c2n1 | 1.0

Req: Which result was noted for this compound in the test: CN(C)CCNC(=O)c1cccn2cc(-c3ccccc3)nc12
Resp: 1.0

Req: Test call for this compound, please: CCOC(=O)C(C)=O
Resp: 0.0

----------
Test system: CCRIS mutagenicity, Ames/micronucleus/aberration tests
Experiment: CCRIS mutagenicity studies
Conditions: Test System: AMES SALMONELLA TYPHIMURIUM; Strain/Indicator: TA100; Metabolic Activation: NONE; Method: STANDARD PLATE
Calls of active or inactive are those of the source. How the calls were made is not given here.
Choose one outcome from this list and give only that: yes (active), no (inactive)

Below, 3 compounds whose answers are already recorded.
compound | class
CC(C)=C/C(C)=N/Nc1nncc2ccccc12 | yes
N[C@@H](CCC(=O)NNc1ccccc1)C(=O)O | no
O=C1NC(c2ccc([N+](=O)[O-])s2)Nc2ccccc21 (centres undefined) | yes

Req: Called result for O=[N+]([O-])c1ccc(Cl)c([N+](=O)[O-])c1
Resp: yes

----------
Tested on: CCRIS mutagenicity, Ames/micronucleus/aberration tests
Experiment: CCRIS mutagenicity studies
Settings: Test System: AMES SALMONELLA TYPHIMURIUM; Strain/Indicator: TA1538; Metabolic Activation: NONE; Method: STANDARD PLATE
Calls of active or inactive are those of the source. No rule for the calls is given here.
// classify into 1.0 for active, 0.0 for inactive

Solved entries (count: 6):
compound | target-entity | class
O=C1N=NC(=O)C2C=CC=CC12 (configuration not stated) | CCRIS mutagenicity, Ames/micronucleus/aberration tests | 0.0
CCCCCC(O)CC(=O)CCC1CCC(O)C(OC)C1 (configuration not stated) | CCRIS mutagenicity, Ames/micronucleus/aberration tests | 0.0
Nc1ccc2[nH]c3ccccc3c2c1[N+](=O)[O-] | CCRIS mutagenicity, Ames/micronucleus/aberration tests | 1.0
O=C(CBr)c1ccccc1 | CCRIS mutagenicity, Ames/micronucleus/aberration tests | 0.0
C=CC(=O)OCCCCOC(=O)C=C | CCRIS mutagenicity, Ames/micronucleus/aberration tests | 0.0
Nc1ncnc2c1ncn2[C@@H]1O[C@H](CO)[C@@H](O)[C@H]1O | CCRIS mutagenicity, Ames/micronucleus/aberration tests | 0.0

Req: What is the recorded call for this compound in the test? N#Cc1cc([N+](=O)[O-])ccc1N=Nc1ccc(N(CCO)CCO)cc1
Resp: 1.0

Req: State the result this test recorded for O=C1OC2(c3ccccc31)c1cc(I)c(O)c(I)c1Oc1c2cc(I)c(O)c1I .
Resp: 0.0

Req: State the result this test recorded for Oc1ccc2c(c1)OCO2 .
Resp: 0.0

Req: Please share the test call associated with CCCCC/C=C/C=C/C=O .
Resp: 0.0

Req: Dear colleague, could you share the recorded outcome for c1cnccn1 when you have a moment?
Resp: 0.0

Req: Given Nc1cc([N+](=O)[O-])c(N)cc1Cl , state the outcome it received in this test.
Resp: 1.0

Req: I'd appreciate the recorded outcome for CC1=C[C@H](O)[C@H]2C[C@@H]1C2(C)C from this test.
Resp: 0.0

Req: Which outcome was assigned to CCN1CCN(C(=O)N[C@@H](C(=O)N[C@@H]2C(=O)N3[C@@H]2SC(C)(C)[C@@H]3C(=O)O)c2ccccc2)C(=O)C1=O in this test?
Resp: 0.0

Req: Query: recorded result category for c1ccc(-c2ccc(-c3ccccc3)cc2)cc1 in this test
Resp: 0.0

Req: What did this assay record as the result for O=S1(=O)OC(c2cc(Br)c(O)c(Br)c2)(c2cc(Br)c(O)c(Br)c2)c2ccccc21 ?
Resp: 0.0
